Molecular target: GPR3 (Homo sapiens)
Construct: expressed in transfected cells; host or cells: CHO cells
Test: GPR3 antagonist functional cAMP assay (LANCE Ultra cAMP TR-FRET, CHO cells stably expressing GPR3)
Type: cell-based
Settings: CHO cells stably expressing GPR3, cAMP assay (Example 24)
measured_property: IC50

[[record]]
compound = "CC(=O)N1CCc2nc(N3CCC(C(=O)N(C)c4ccc(F)cc4)C3)c(-c3cnn(C)c3)nc2C1 (stereo not shown)"
tested_on = "GPR3 (Homo sapiens)"
value = "1 to 30 µM"


q: Which IC50 value is on record for `CC(=O)N1CCc2nc(N3CCC(Oc4ccc(F)cc4F)CC3)c(-c3cnn(C4COC4)c3)nc2C1` ?
a: 1 to 30 µM

q: For the compound COCCN1CCc2nc(N3CCC(Oc4ccc(F)cc4F)CC3)c(-c3cnn(C4CCCCO4)c3)nc2C1 (stereo not shown) , what IC50 is on record?
a: 1 to 30 µM

q: # query: IC50 of entry `O=c1cccc(-c2nc3ccncc3nc2N2CCC(Oc3ccc(F)cc3F)CC2)[nH]1`
a: 1 to 30 µM

q: // lookup IC50 for `CC(=O)N1CCc2nc(N3CC=CCC3)c(-c3cnn(C)c3)nc2C1`
a: 1 to 30 µM

q: Report IC50 for `O=C(C1CNC1)N1CCc2nc(N3CCC(Oc4ccc(F)cc4F)CC3)c(-c3cn[nH]c3)nc2C1` please.
a: 1 to 30 µM

----------
Biological target: GPR3 (Homo sapiens)
Construct: expressed in transfected cells; host or cells: CHO cells
Assay: GPR3 antagonist functional cAMP assay (LANCE Ultra cAMP TR-FRET, CHO cells stably expressing GPR3)
Format: cell-based
Conditions: procedure as described in Example 24
measured_property: IC50

# count of solved cases: 5
[[record]]
compound = "N#Cc1ccc2nc(N3CCN(Cc4cc(Cl)ccc4Cl)CC3)c(-c3ncc[nH]3)nc2c1"
value = "100 to 1000 nM"

[[record]]
compound = "CC(=O)N1CCc2nc(N3CCC(Oc4ccc(F)cc4F)CC3)c(-c3cccc(N(C)C)n3)nc2C1"
value = "1000 to 30000 nM"

[[record]]
compound = "CC(=O)N1CCc2nc(N3CCC(Oc4ccc(F)cc4F)CC3)c(-c3cccc(=O)n3C)nc2C1"
value = "100 to 1000 nM"

[[record]]
compound = "CC1CN(c2nc3ccncc3nc2-c2cn[nH]c2)CCN1Cc1ccc(F)cc1F (single isomer, unassigned)"
value = "1000 to 30000 nM"

[[record]]
compound = "CC(=O)N1CCc2nc(N3CCC(Oc4ccc(F)cc4F)CC3)c(-c3cnn(C)c3)nc2C1"
value = "1000 to 30000 nM"


q: Sample `CC(=O)N1CCc2nc(N3CCC(Oc4ccc(F)cc4F)CC3)c(-c3cccc(C#N)n3)nc2C1` — what was its IC50?
a: 1000 to 30000 nM

q: Any idea what IC50 was measured for `CC(=O)N1CCc2nc(N3CCC(Oc4ccc(F)cc4F)CC3)c(-c3cncc(=O)[nH]3)nc2C1` ?
a: 1000 to 30000 nM

----------
Target: GPR6 (Homo sapiens, UniProt P46095)
Construct: expressed in transfected cells; host or cells: CHO cells
Sequence (P46095 whole entry): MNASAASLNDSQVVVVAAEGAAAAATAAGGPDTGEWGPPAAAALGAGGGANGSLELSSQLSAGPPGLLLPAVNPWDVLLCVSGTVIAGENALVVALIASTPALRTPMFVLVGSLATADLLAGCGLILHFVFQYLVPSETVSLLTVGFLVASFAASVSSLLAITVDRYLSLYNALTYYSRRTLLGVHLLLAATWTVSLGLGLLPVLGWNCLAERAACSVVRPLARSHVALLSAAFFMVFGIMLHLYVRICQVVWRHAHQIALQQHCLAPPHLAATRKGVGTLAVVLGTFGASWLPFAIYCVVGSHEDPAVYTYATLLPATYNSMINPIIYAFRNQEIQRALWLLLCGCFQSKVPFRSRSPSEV
Assay: GPR6 antagonist functional cAMP assay (LANCE Ultra cAMP TR-FRET, CHO cells stably expressing GPR6)
Assay type: cell-based
Details: procedure of Example 24
pIC50: −log10 of the molar value.
measured_property: pIC50

Recorded pIC50, per entry:
[[record]]
molecule = "CC(C)(O)C(=O)N1CCc2nc(N3CCC(Oc4ccc(F)cc4F)CC3)c(-c3ccc(F)c(N)n3)nc2C1 [Compound 639]"
value = "6.00 to 7.00"

[[record]]
molecule = "CC(C)(O)C(=O)c1cc2nc(N3CCN(Cc4ccc(F)cc4F)CC3)c(-c3cnn(C4CC4)c3)nc2cn1 [Compound 619]"
value = "6.00 to 7.00"

[[record]]
molecule = "Cn1cc(-c2nc3cnc(C#N)cc3nc2N2CCC(Oc3ccc(F)cc3F)CC2)cn1 [Compound 293]"
value = "4.52 to 6.00"


q: Could you share which pIC50 value was measured for CC(C)(O)[C@](C)(O)c1cc2nc(N3CCN(Cc4ccccc4F)CC3)c(-c3cnn(C(F)F)c3)nc2cn1 (single isomer, unassigned) [Compound 669] ?
a: 6.00 to 7.00

----------
Biological target: GPR3 (Homo sapiens, UniProt P46089)
Construct: expressed in transfected cells; host or cells: CHO cells
Sequence (P46089 whole entry, species assumed): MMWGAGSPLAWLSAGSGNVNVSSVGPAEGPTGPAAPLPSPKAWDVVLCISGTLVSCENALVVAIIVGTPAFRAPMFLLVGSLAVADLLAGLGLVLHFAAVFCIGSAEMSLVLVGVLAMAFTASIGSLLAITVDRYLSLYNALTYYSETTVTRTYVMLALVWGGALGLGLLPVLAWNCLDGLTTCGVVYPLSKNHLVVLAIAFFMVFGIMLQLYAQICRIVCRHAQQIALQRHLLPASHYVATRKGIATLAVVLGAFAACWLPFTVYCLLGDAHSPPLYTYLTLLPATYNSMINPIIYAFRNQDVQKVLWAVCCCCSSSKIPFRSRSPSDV
Assay: GPR3 antagonist functional cAMP assay (LANCE Ultra cAMP TR-FRET, CHO cells stably expressing GPR3)
Format: cell-based
Conditions: procedure of Example 24
measured_property: IC50

Use the examples below as a reference point.
[[record]]
compound = "CC(=O)N1CCc2nc(N3CCCC(Oc4ccccc4F)C3)c(-c3cnn(C)c3)nc2C1 (stereo not shown)"
value = "100 to 1000 nM"

[[record]]
compound = "COc1nc(-c2nc3c(nc2N2CCC(Oc4ccc(F)cc4F)CC2)CCN(C(C)=O)C3)cnc1Cl"
value = "1000 to 30000 nM"

[[record]]
compound = "CC(C)(O)[C@@H](O)c1cc2nc(N3CCC(=Cc4ccc(F)cc4F)CC3)c(-c3cnn(C(F)F)c3)nc2cn1 (single isomer, unassigned)"
value = "1000 to 30000 nM"


# evaluate next
q: Reported IC50, compound `CC(C)S(=O)(=O)N1CCc2nc(N3CCC(Oc4ccc(F)cc4F)CC3)c(-c3ccc(F)c(N)n3)nc2C1` : ____
a: 1000 to 30000 nM

----------
Molecular target: GPR3 (Homo sapiens)
Construct: expressed in transfected cells; host or cells: CHO cells
Experiment: GPR3 antagonist functional cAMP assay (LANCE Ultra cAMP TR-FRET, CHO cells stably expressing GPR3)
Assay type: cell-based
Details: CHO cells stably expressing GPR3, cAMP assay
Recorded IC50 by entry

Example cases with answers are listed next.
[[record]]
compound = "CCn1cc(-c2nc3cnc([C@H](O)C(C)(C)O)cc3nc2N2CCN(Cc3ccc(F)cc3F)CC2)cn1 (single isomer, unassigned)"
value = "1000 to 30000 nM"

[[record]]
compound = "COc1ccccc1CN1CCN(c2nc3c(nc2-c2cnn(C)c2)CN(C(C)=O)CC3)CC1"
value = "1000 to 30000 nM"

[[record]]
compound = "Cn1cc(-c2nc3cnc([C@H](O)C(C)(C)O)cc3nc2N2CCN(Cc3ccc(F)cc3F)CC2)cn1 (single isomer, unassigned)"
value = "100 to 1000 nM"


q: Return reported IC50; argument: COC1CCC(c2nc3c(nc2N2CCC(Oc4ccc(F)cc4F)CC2)CCN(C(=O)CO)C3)CC1 (stereo not shown)
a: 1000 to 30000 nM

q: Would you kindly share the measured IC50 for `CC(=O)N1CCc2nc(N3CCN(Cc4cccn(C)c4=O)CC3)c(-c3cnn(C)c3)nc2C1` ?
a: ≥ 30000 nM

q: Could you tell me which IC50 is on file for `CC(=O)N1CCc2nc(N3CCC(Oc4ccc(C(F)(F)F)cc4F)CC3)c(-c3cnn(C)c3)nc2C1` ?
a: 100 to 1000 nM

q: Please report the recorded IC50 for `CC(=O)N1CCc2nc(N3CCN(Cc4cccc(=O)n4C)CC3)c(-c3cnn(C)c3)nc2C1` .
a: ≥ 30000 nM

----------
Target: GPR6 (Homo sapiens)
Construct: expressed in transfected cells; host or cells: CHO cells
Assay: GPR6 antagonist functional cAMP assay (LANCE Ultra cAMP TR-FRET, CHO cells stably expressing GPR6)
Assay type: cell-based
Conditions: CHO cells stably expressing GPR6, cAMP assay (Example 24)
measured_property: IC50

Recorded IC50, per entry:
[[record]]
compound = "Cc1cc2nc(N3CCC(Oc4ccc(F)cc4F)CC3)c(-c3cnn(C)c3)nc2cn1 [Compound 228]"
measured_property = "IC50"
value = "0.1 to 1 µM"

[[record]]
compound = "CC(=O)N1CCc2nc(N3CCC(Oc4ccc(F)cc4F)CC3)c(-c3cnn(C4CNC4)c3)nc2C1 [Compound 134]"
measured_property = "IC50"
value = "1 to 30 µM"

[[record]]
compound = "Cn1cc(-c2nc3cnc(N4CCOCC4)cc3nc2N2CCC(Oc3ccc(F)cc3F)CC2)cn1 [Compound 449]"
measured_property = "IC50"
value = "1 to 30 µM"

[[record]]
compound = "COc1ncc(-c2nc3c(nc2N2CCC(Oc4ccc(F)cc4F)CC2)CCN(C(C)=O)C3)cc1F [Compound 160]"
measured_property = "IC50"
value = "0.1 to 1 µM"


// next entry
q: What measured IC50 is associated with COc1ccc(-c2nc3c(nc2N2CCC(Oc4ccc(F)cc4F)CC2)CCN(C(C)=O)C3)cn1 [Compound 126] on GPR6 (Homo sapiens)?
a: 0.1 to 1 µM
